- test-details: clinical
- condition-set: both, human, plasma, oral, 0.6 mg, AUC0-t, Mean, mean of N = 21, single 0.6 mg colchicine
value-kind: AUC(0-t) (ng·h/mL)
Return type: number; implicit unit ng·h/mL.

Task: Recall and state the measured AUC(0-t) for COc1cc2c(c(OC)c1OC)-c1ccc(OC)c(=O)cc1[C@@H](NC(C)=O)CC2 [Treatment A] .
Result: 9.33

---

- test-details: clinical
- condition-set: both, human, plasma, oral, 0.6 mg, Weight-Adjusted CL/F, Mean, mean of N = 21, single 0.6 mg colchicine
value-kind: CL/F

Task: Recall and state the measured CL/F for COc1cc2c(c(OC)c1OC)-c1ccc(OC)c(=O)cc1[C@@H](NC(C)=O)CC2 [Treatment A] .
Result: 12.3 mL/min/kg

---

- test-details: clinical
- condition-set: both, human, plasma, oral, 0.6 mg, Weight-Adjusted CL/F, Least Squares Mean, Non-Transformed Data, single 0.6 mg colchicine dose
value-kind: CL/F (mL/min/kg)
Return type: number; implicit unit mL/min/kg.

Task: Recall and state the measured CL/F for `COc1cc2c(c(OC)c1OC)-c1ccc(OC)c(=O)cc1[C@@H](NC(C)=O)CC2` .
Result: 12.3

---

- test-details: clinical
- condition-set: both, human, plasma, oral, 0.6 mg, AUC0-t, Median, median of N = 21, single 0.6 mg colchicine
value-kind: AUC(0-t)
Kindly format the answer as number then unit.

Task: Recall and state the measured AUC(0-t) for COc1cc2c(c(OC)c1OC)-c1ccc(OC)c(=O)cc1[C@@H](NC(C)=O)CC2 [Treatment A] .
Result: 8.84 ng·h/mL

---

- test-details: clinical
- condition-set: both, human, plasma, oral, 0.6 mg, Cmax, Median, median of N = 21, single 0.6 mg colchicine
value-kind: Cmax (ng/mL)
Return type: number; implicit unit ng/mL.

Task: Recall and state the measured Cmax for `COc1cc2c(c(OC)c1OC)-c1ccc(OC)c(=O)cc1[C@@H](NC(C)=O)CC2` .
Result: 2.06

---

- test-details: clinical
- condition-set: both, human, plasma, oral, 0.6 mg, Cmax, Mean, mean of N = 21, single 0.6 mg colchicine
value-kind: Cmax

Task: Recall and state the measured Cmax for `COc1cc2c(c(OC)c1OC)-c1ccc(OC)c(=O)cc1[C@@H](NC(C)=O)CC2` .
Result: 2.17 ng/mL

---

- test-details: clinical
- condition-set: both, human, plasma, oral, 0.6 mg, Cmax, Geometric Mean, single 0.6 mg colchicine dose, N = 21, based on least squares means of ln-transformed values
value-kind: Cmax (ng/mL)
Return type: number; implicit unit ng/mL.

Task: Recall and state the measured Cmax for COc1cc2c(c(OC)c1OC)-c1ccc(OC)c(=O)cc1[C@@H](NC(C)=O)CC2 [Treatment A] .
Result: 2.07

---

- test-details: clinical
- condition-set: both, human, plasma, oral, 0.6 mg, AUC0-∞, Mean, mean of N = 21, single 0.6 mg colchicine
value-kind: AUC(0-inf) (ng·h/mL)
Return type: number; implicit unit ng·h/mL.

Task: Recall and state the measured AUC(0-inf) for `COc1cc2c(c(OC)c1OC)-c1ccc(OC)c(=O)cc1[C@@H](NC(C)=O)CC2` .
Result: 11.1

---

- test-details: clinical
- condition-set: both, human, plasma, oral, 0.6 mg, t1/2, Least Squares Mean, Non-Transformed Data, single 0.6 mg colchicine dose
value-kind: half-life
Kindly format the answer as number then unit.

Task: Recall and state the measured half-life for `COc1cc2c(c(OC)c1OC)-c1ccc(OC)c(=O)cc1[C@@H](NC(C)=O)CC2` .
Result: 4.64 h
